Data credit: PubChem BioAssay AID463229

- Test system: INS-1E rat beta cells, no cytokines, CellTiter-Glo ATP, 48 h
- assay-comment: cytokine-free beta-cell viability effect – INS-1E rat cells, ATP luminescence, cherry pick, counter-screen for beta-cell apoptosis protection project, dose response (AID 463229)
parameter-measured: AC50

For the record O=C(Nc1ccc(N2CCN(C(=O)c3ccc(Cl)cc3)CC2)cc1)c1cccnc1 , what value of AC50 is listed for INS-1E rat beta cells, no cytokines, CellTiter-Glo ATP, 48 h?
18.7 µM

Next record, please: Cc1cnc(NC(=O)CN2CCN(c3ccccn3)CC2)s1
4.35 µM

Next molecule: CCCOC(=O)c1ccc(-[n+]2c(-c3ccccc3)cc(-c3ccccc3)cc2-c2ccccc2)cc1
2.15 µM

Another: Fc1cc(F)c2nc(Nc3nc4c(F)cccc4s3)sc2c1
4.95 µM

Next molecule: Cc1ccccc1CNc1ccc(C(CC(N)=O)NC(=O)c2ccc(Br)cc2)cc1[N+](=O)[O-] (stereo not given)
15.7 µM

Then C=C1C(=O)C=C2CN(C(=O)c3ccccc3)[C@@](Cc3ccc(F)cc3)(C(=O)OC)[C@@H]12 ?
2.56 µM

And what about the molecule CCNC(=O)Nc1cc(S(=O)(=O)Nc2ccc(OC)cc2)ccc1N1CCOCC1 ?
6.84 µM

Moving on to COc1ccc(OCc2n(CC(=O)OC3CC(C)CCC3C(C)C)c3ccccc3[n+]2C)cc1 (stereo not given)
4.3 µM

Can you handle C[N+]1=C(/C=C/Nc2ccccc2Cl)C(C)(C)c2ccccc21 next?
12.2 µM

Lookup CCN(CC)S(=O)(=O)c1cccc(NC(=O)CNc2cccc(S(=O)(=O)N3CCCC3)c2)c1
6.2 µM

====

- System: INS-1E rat beta cells, no cytokines, CellTiter-Glo ATP, 48 h
- assay-comment: cytokine-free beta-cell viability effect – INS-1E rat cells, ATP luminescence, cherry pick, counter-screen for beta-cell apoptosis protection project, dose response (AID 463229)
parameter-measured: AC50

# get_value(readout='AC50', item= N=c1c2ccccc2nc2n1CCCCCCCCCCC2 )
13.9 µM

Now the same for COc1ccc(N=Nc2ccc(O)c3ncccc23)cc1
4.26 µM

What about this compound? CCN(CC)CCCNC1=C(Cl)C(=O)c2ccccc2C1=O
13.1 µM

Lookup C=CCn1nc([N+](=O)[O-])nc1Sc1cccc2cccnc12
6.79 µM

Now consider Cc1ncc(CO)c(/C=N/NC(=O)c2cc3c(s2)CCCC3)c1O and answer again.
5.92 µM

Next: CC(C)(C)OC(=O)NCc1ccc(NC(=O)c2nc[nH]c2C(=O)NCCCCNC(=O)c2[nH]cnc2C(=O)Nc2ccc(CNC(=O)OC(C)(C)C)cc2)cc1
5.34 µM

// next record CCOc1cc(N2CCOCC2)c(OCC)cc1NC(=O)COc1cccc2cccnc12
3.61 µM

Next record, please: CCCCn1c(/C=N/Nc2nc3ccccc3[nH]2)nc2ccccc21
14.1 µM

Another compound to check: CCCCNc1c(-c2ccc(OC)c(SC(C)CC)c2)nc2ccc(C)cn12 (configuration not stated)
4.44 µM

Further, for CCOC(=O)c1cccc(-[n+]2c(-c3ccccc3)cc(-c3ccccc3)cc2-c2ccccc2)c1 ?
3.59 µM

Field entry: COc1ccc(-c2cc(-c3nc4ccccn4c3NCc3ccccc3)ccc2OC)cc1
0.992 µM

Next: CC(=O)/C=C1\N(C)c2ccc(C)cc2C1(C)C
7.3 µM

Same lookup for O=S1(=O)C=C(Sc2nnc(-c3ccccc3)o2)c2ccccc21 , please.
7.96 µM

Proceed to CCCCCCCCSc1nnc(CSc2nc3nc(C)cc(C)n3n2)o1
26.1 µM

Also need CCOc1ccc(S(=O)(=O)NCc2ccncc2)cc1 , thanks.
1.65 µM

Repeat for the following compound: COc1cc(/C=N/N=C(N)N)ccc1OCc1ccc(Cl)cc1
7.22 µM

Moving on to CCCC(=O)NC(c1ccc(N(C)C)cc1)c1ccc2cccnc2c1O (configuration not stated)
2.08 µM

Also Nc1nonc1-n1nnc(C(=O)N/N=C/c2cc(Br)ccc2O)c1CNc1ccccc1 ?
8.29 µM

Also check Clc1ccc(OCCN2CCN(c3ncnc4sccc34)CC2)cc1
0.726 µM

How about this compound: COc1ccc2cc1Oc1ccc(cc1)C[C@H]1c3cc(c(OC)cc3CCN1C)Oc1c(O)c(OC)cc3c1[C@H](C2)N(C)CC3
7.07 µM

Would you mind doing Cc1nc(C)c(C(=O)N/N=C/c2cc(Br)ccc2O)s1 as well?
7.57 µM

// next record O=C1C(=O)c2ccccc2-c2ccccc21
1.01 µM

Then what about the compound CCN1/C(=C/C=C/c2oc3ccc(-c4ccccc4)cc3[n+]2CC)Oc2ccc(-c3ccccc3)cc21 ?
0.78 µM

Also check CN(CC1CCCO1)S(=O)(=O)c1ccc(C(=O)Nc2nc(-c3ccccn3)cs2)cc1 (configuration not stated)
10.4 µM

Record: COc1cc2nc(N3CCN(c4cc(C)ccc4C)CC3)nc(N)c2cc1OC
6.91 µM

Repeat for the following compound: CCCCCCc1ccc(N2C[C@H](Cc3ccccc3)[C@@H](CC(=O)NCc3ccc(OC)cc3)C2=O)cc1
13.6 µM

Entry to check: CCOc1cccc(/C=N/NC(=O)c2ccc3c(c2)OCCO3)c1O
8.21 µM

And then CCCCCCC[n+]1ccc(-c2cc[n+](CCCCCCC)cc2)cc1 , what is it?
3 µM

Try CC(C)(C)n1ncc2c(=O)n(Cc3cccc(Cn4cnc5c(cnn5C(C)(C)C)c4=O)c3F)cnc21 next.
4.32 µM

Similarly, COc1cc(C(=O)Oc2c(CN3CCOCC3)cc(Cl)c3cccnc23)cc(OC)c1OC ?
13.3 µM

Please answer likewise for O=C(CC(O)(C(F)(F)F)C(F)(F)F)Nc1ccc(Cl)c(Cl)c1
2.73 µM

// next record CC1=NN(c2nc3ccccc3[nH]2)C(=O)C1Cc1ccccc1 (configuration not stated)
2.1 µM

Next up: Cc1cc(-c2ccccc2)n(-c2cc(N/N=C/c3ccccc3O)ncn2)n1
7.17 µM

Also need Cc1ccc(N=Cc2c(C)[nH]n(-c3nc4ccccc4[nH]3)c2=O)cc1 , thanks.
1.85 µM

Query Cc1cc(C)c(S(=O)(=O)/N=C2/C=C(Sc3ncn[nH]3)C(=O)c3ccccc32)cc1C next
7.58 µM

Try CCCC(=O)NC(c1ccccc1Cl)c1ccc2cccnc2c1O (configuration not stated) next.
2.13 µM

Same for Oc1ccc(N=Nc2ccc3c(c2)OCCO3)c2ncccc12
3.75 µM

And the next one, COC(=O)c1ccccc1NC(=O)c1nc(S(=O)(=O)Cc2ccccc2)ncc1Cl ?
7.98 µM

Please do the same for O=S(=O)(NCC1CCCO1)c1ccc(-c2ccc(S(=O)(=O)NCC3CCCO3)cc2)cc1 (configuration not stated) as well.
4.95 µM

Then this compound: CCN(c1ccccc1)S(=O)(=O)c1ccc(NC(=O)c2nc(S(C)(=O)=O)ncc2Cl)cc1
8.95 µM

What do you have for Cc1ccc(NC2=CC(=O)C(=O)c3ccccc32)cc1 ?
7.65 µM

One more compound: CC(=O)NC(c1cc(Cl)c2cccnc2c1O)C1CC1 (configuration not stated)
7.49 µM

====

Assignment: determine reported AC50 for the given compounds.
- Tested on: INS-1E rat beta cells, no cytokines, CellTiter-Glo ATP, 48 h
- assay-comment: cytokine-free beta-cell viability effect – INS-1E rat cells, ATP luminescence, cherry pick, counter-screen for beta-cell apoptosis protection project, dose response (AID 463229)

Please look up its AC50: Nc1c(Cl)ncnc1N/N=C/c1ccc2ccccc2n1
4.38 µM

Let us now turn to COc1ccccc1/C=C/CN1CCC(n2nccc2NC(=O)CCc2ccccc2)CC1
8.85 µM

Entry Cc1ccc(C)c(N2CCN(C(=O)CCCOc3cc(=O)n(C)c4ccccc34)CC2)c1 please
2.7 µM

Similarly, Cc1ccc(-c2cn(-c3ccc(SC(F)F)cc3)c3[n+]2CCC3)cc1 ?
5.91 µM

Next up: O=C(NNc1ccccc1Br)C(O)(c1cccc(C(F)(F)F)c1)c1cccc(C(F)(F)F)c1
7.06 µM

Consider next the compound CC(=O)N1CCCc2cc(S(=O)(=O)N3CCCC(C(=O)N4CCN(c5cccc(Cl)c5)CC4)C3)ccc21 (stereo unspecified) in the same way.
7.05 µM

What would you report for Cc1[nH]n(-c2ccccc2)c(=O)c1/C=N/NC(=O)c1cccc(F)c1 ?
4.23 µM

Cool, now CCc1c(C)sc2nc(C(C)C)nc(SCC(=O)N3CCc4ccccc4C3)c12
2.08 µM

Let us now turn to CC(=O)c1cccc(N=c2scc(-c3ccc(S(=O)(=O)N4CCOCC4)cc3)n2CCO)c1
3.22 µM

Proceed to Oc1ccc(-[n+]2c(-c3ccccc3)cc(-c3ccccc3)cc2-c2ccccc2)cc1
3.96 µM

Next entry: CN1/C(=C\P(=O)(N(C)C)N(C)C)C(C)(C)c2ccccc21
4.86 µM

And the next one, NC(N)=NC(N)=Nc1ccc(SC(F)(F)F)cc1 ?
2.76 µM

Input Cc1ccccc1/C=N/Nc1ccnc2cc(Cl)ccc12
6.91 µM

What about Cc1nc(NCCc2ccc(S(N)(=O)=O)cc2)c2c(C)c(C)sc2n1 ?
6.2 µM

Can you check CC(C)OCCCNc1ncnc2c1[nH]c1ccccc12 next?
4.34 µM

Request: CCC(=O)NC(c1ccccc1OC)c1ccc2cccnc2c1O (stereo unspecified)
4.29 µM

Try this compound too: O=S(=O)(c1ccc2c(c1)OCCO2)N1CCN(c2ncnc3sccc23)CC1
4.9 µM

Next compound: Brc1ccc(-[n+]2c(-c3ccccc3)cc(-c3ccccc3)cc2-c2ccccc2)cc1
2.4 µM

Also need Brc1ccc(N/N=C(/N=Nc2nn[nH]n2)c2ccccc2)cc1 , thanks.
3.51 µM

Another: COc1ccc(/C=C/c2nc3ccccc3n2C)cc1
3.13 µM

Record: C/C(=N\NC(=O)c1cc(-c2cccnc2)nc2ccccc12)c1ccc(O)cc1O
2.45 µM

Field entry: Cc1sc2cc3c(c(C(=O)c4ccccc4)[n+]2c1C)-c1cccc2cccc-3c12
2.27 µM

Then this compound: Cn1ncc2c(N3CCN(c4ccc(Cl)c(Cl)c4)CC3)ncnc21
3.37 µM

Continue with O=[N+]([O-])c1ccc(O)c(/C=N/Nc2nc3ccccc3[nH]2)c1
2.01 µM

Proceed to O=C(Nc1ccc(Cl)c(Cl)c1)N1CCSC1c1ccco1 (stereo unspecified)
14.2 µM

What do you get for Nc1nc(-c2ccccn2)nc(N)c1Cc1c(F)cccc1Cl ?
8.86 µM

Further, for Cc1ccc(NC2=CC(=O)C(=O)c3ccccc32)c(C)c1 ?
4.39 µM

Would you mind doing CCOc1cc(-c2sc(Nc3cc(C)ccc3OC)n[n+]2-c2ccccc2)ccc1OC as well?
15 µM

Similarly, CC[C@@H](C(=O)[C@@H](C)[C@@H](O)[C@H](C)CCc1ccc(C)c(O)c1C(=O)O)[C@H]1O[C@](CC)([C@H]2CC[C@](O)(CC)[C@H](C)O2)C[C@@H]1C ?
2.49 µM

Would you mind doing CC(=O)NC(c1cc(Cl)c2cccnc2c1O)C(C)C (stereo unspecified) as well?
8.18 µM

// query: CC[C@@]1(O)C(=O)OCc2c1cc1n(c2=O)Cc2cc3c(N)cccc3nc2-1
< 0.195 µM

Same question for C/C(=N\NC(=O)C(C)n1nc(C)c([N+](=O)[O-])c1C)c1ccccc1O (stereo unspecified) please.
12.5 µM

Now this one: COc1cc(Cl)c(NC2=CC(=O)C(=O)c3ccccc32)c(OC)c1
8.01 µM

Entry to check: CC(C)c1nc(-c2ccccc2)c(-c2ccccc2)[nH]1
6.81 µM

Param item: Cc1ccc(C)c(NC(=O)c2ccccc2NS(=O)(=O)c2cc([N+](=O)[O-])ccc2C)c1
3.94 µM

Another: O=C(N/N=C/c1cc([N+](=O)[O-])ccc1O)c1cc(-c2ccccc2)nc2ccccc12
5.78 µM

Proceed to Cc1cc(Cl)c(S(=O)(=O)N2CCN(c3ccc(F)cc3)CC2)cc1OCC(=O)NC1CCCCC1
7.07 µM

Moving on to CCCCCCSc1ccc([C@H]2N[C@@](Cc3ccccc3)(C(=O)OC)[C@H]3C(=O)N(C)C(=O)[C@@H]23)cc1
14.6 µM

Please give the result for Cc1nc(Nc2ccc(Cl)c(Cl)c2)sc1C(=O)Nc1ccccc1 too.
9.24 µM

Again, but for CCC(C)Nc1nc(-c2ccccn2)nc2ccccc12 (stereo unspecified)
9.01 µM

What do we get for COc1ccc(-c2cc(-c3ccccc3)[n+](C)c(-c3ccccc3)c2)cc1 ?
4.28 µM
